Entry source: patent US4698352A

# System: Ps. aeruginosa GN3379*
# experimentalDetails: Antibacterial activity (MIC), agar dilution
# Assay type: cell-based
# setupConditions: Pseudomonas aeruginosa, 20 h; Ps. aeruginosa GN3379, penicillinase-producing; 10^6 cells per ml; read-out: MIC
testReadout: log10(MIC) (log10 of the value in µg/mL)

>>> datavalue("O=C(O)c1cn(-c2ccc(F)cc2)c(/C=C/c2ccccc2)cc1=O")
1.40
>>> datavalue("CN1CCOc2cc(-c3cc(=O)c(C(=O)O)cn3-c3ccc(O)cc3F)ccc21")
1.10
>>> datavalue("CC(=O)Oc1ccc(-n2cc(C(=O)O)c(=O)cc2-c2ccc(-c3cccs3)cc2)cc1")
0.50
>>> datavalue("Cc1nc2ccc(-c3cc(=O)c(C(=O)O)cn3-c3ccc(O)cc3)cc2s1")
1.10
>>> datavalue("Cc1cc(O)ccc1-n1cc(C(=O)O)c(=O)cc1-c1ccc2[nH]ccc2c1")
1.40
>>> datavalue("Cc1nc(-c2ccc(-c3cc(=O)c(C(=O)O)cn3-c3ccc(O)cc3C)cc2)cs1")
0.80
>>> datavalue("CN(C)c1ccc(-c2cc(=O)c(C(=O)O)cn2-c2ccc(F)cc2O)cc1")
1.40
>>> datavalue("CNc1ccc(-c2cc(=O)c(C(=O)O)cn2-c2ccc(O)cc2)cc1C")
0.80
>>> datavalue("O=C(O)c1cn(-c2ccc(F)cc2)c(C=Cc2ccncc2)cc1=O")
1.40
>>> datavalue("CN1CCOc2cc(-c3cc(=O)c(C(=O)O)cn3-c3ccc(O)cc3)ccc21")
1.10
>>> datavalue("O=C(O)c1cn(-c2ccc(O)cc2)c(-c2ccc3occc3c2)cc1=O")
0.80
>>> datavalue("O=C(O)c1cn(-c2ccc(O)cc2)c(-c2ccc3sccc3c2)cc1=O")
0.19
>>> datavalue("CC=Cc1cc(=O)c(C(=O)O)cn1-c1ccc(O)cc1C")
1.40
>>> datavalue("O=C(O)c1cn(-c2ccc(F)cc2)c(C=Cc2cccnc2)cc1=O [drawing 205]")
1.40
>>> datavalue("O=C(O)c1cn(-c2ccc(O)cc2)c(-c2ccc3ccccc3c2)cc1=O")
0.50
>>> datavalue("CC1Cc2cc(-c3cc(=O)c(C(=O)O)cn3-c3ccc(O)cc3)ccc2O1 (centres unmarked)")
1.40
>>> datavalue("Cc1cc(F)ccc1-n1cc(C(=O)O)c(=O)cc1C1CC=CCC1 (centres unmarked)")
2.00
>>> datavalue("O=C(O)c1cn(-c2ccc(O)cc2)c(-c2ccc(-n3cccn3)cc2)cc1=O")
0.80
>>> datavalue("CN(C)c1ccc(-c2cc(=O)c(C(=O)O)cn2-c2ccc(OS(=O)(=O)O)cc2)cc1")
1.70
>>> datavalue("Cc1nc(-c2ccc(-c3cc(=O)c(C(=O)O)cn3-c3ccc(O)cc3C)cc2)co1")
0.80
>>> datavalue("Cn1ccc2cc(-c3cc(=O)c(C(=O)O)cn3-c3ccc(O)cc3F)ccc21")
0.50
>>> datavalue("O=C(O)c1cn(-c2ccc(O)cc2)c(-c2ccc(-c3ccc(Cl)s3)cc2)cc1=O")
0.50
>>> datavalue("O=C(O)c1cn(-c2ccc(F)cc2)c(-c2ccc(Cl)cc2)cc1=O")
1.70
>>> datavalue("Cn1ccc2cc(-c3cc(=O)c(C(=O)O)cn3-c3ccc(F)cc3)ccc21")
1.40
>>> datavalue("Cc1cc(O)ccc1-n1cc(C(=O)O)c(=O)cc1C1CCCC1")
1.40
>>> datavalue("Cn1ccc2cc(-c3cc(=O)c(C(=O)O)cn3-c3ccc(O)cc3)ccc21")
0.50
>>> datavalue("O=C(O)c1cn(-c2ccc(O)cc2)c(-c2ccc(-c3ccccc3)cc2)cc1=O")
2.00
>>> datavalue("Cc1nc2cc(-c3cc(=O)c(C(=O)O)cn3-c3ccc(O)cc3)ccc2s1")
0.80
>>> datavalue("Cc1ccc(-c2cc(=O)c(C(=O)O)cn2-c2ccc(O)cc2)s1")
0.50
>>> datavalue("O=C(O)c1cn(-c2ccc(O)cc2)c(-c2cc3ccccc3s2)cc1=O")
0.50
>>> datavalue("Cc1cc(O)ccc1-n1cc(C(=O)O)c(=O)cc1-c1ccccc1")
1.10
>>> datavalue("O=C(O)c1cn(-c2ccc(F)cc2)c(-c2ccc(N=Cc3ccc([N+](=O)[O-])o3)cc2)cc1=O")
1.70
>>> datavalue("Cc1cc(O)ccc1-n1cc(C(=O)O)c(=O)cc1-c1ccc(-c2cccs2)cc1")
0.50
>>> datavalue("COc1ccc(-c2ccc(-c3cc(=O)c(C(=O)O)cn3-c3ccc(O)cc3)s2)cc1")
0.80
>>> datavalue("Cc1nc(-c2ccc(-c3cc(=O)c(C(=O)O)cn3-c3ccc(F)cc3)cc2)co1")
1.40
